# method-description: Oral bioavailability in mouse
# Format: ADME, organism-based
# cond: in vivo
endpoint-name: bioavailability (%)

COc1cccc(-c2c(C)n(Cc3c(F)cccc3C(F)(F)F)c(=O)n(C[C@H](NCCCC(=O)[O-])c3ccccc3)c2=O)c1F.[Na+] [ELAGOLIX SODIUM] = 10

---

# method-description: Plasma clearance in rhesus monkey
# Type: ADME, organism-based, Macaca mulatta
endpoint-name: clearance (mL/min/kg)

COc1cccc(-c2c(C)n(Cc3c(F)cccc3C(F)(F)F)c(=O)n(C[C@H](NCCCC(=O)[O-])c3ccccc3)c2=O)c1F.[Na+] [ELAGOLIX SODIUM] = 25.7

---

# method-description: Half life in rhesus monkey
# Type: ADME, organism-based, Macaca mulatta
# cond: in vivo
endpoint-name: half-life (h)

COc1cccc(-c2c(C)n(Cc3c(F)cccc3C(F)(F)F)c(=O)n(C[C@H](NCCCC(=O)[O-])c3ccccc3)c2=O)c1F.[Na+] [ELAGOLIX SODIUM] = 1.1

---

# method-description: Volume of distribution in rhesus monkey
# Type: ADME, organism-based, Macaca mulatta
# cond: in vivo
endpoint-name: Vd (L/kg)

COc1cccc(-c2c(C)n(Cc3c(F)cccc3C(F)(F)F)c(=O)n(C[C@H](NCCCC(=O)[O-])c3ccccc3)c2=O)c1F.[Na+] [ELAGOLIX SODIUM] = 2.5

---

# method-description: Plasma clearance in mouse
# Type: ADME, organism-based
endpoint-name: clearance (mL/min/kg)

COc1cccc(-c2c(C)n(Cc3c(F)cccc3C(F)(F)F)c(=O)n(C[C@H](NCCCC(=O)[O-])c3ccccc3)c2=O)c1F.[Na+] [ELAGOLIX SODIUM] = 50
